# target.desc: BpsDsbA (oxidized) (Burkholderia pseudomallei)
# Sequence (Q63Y08 16-212 limits assumed): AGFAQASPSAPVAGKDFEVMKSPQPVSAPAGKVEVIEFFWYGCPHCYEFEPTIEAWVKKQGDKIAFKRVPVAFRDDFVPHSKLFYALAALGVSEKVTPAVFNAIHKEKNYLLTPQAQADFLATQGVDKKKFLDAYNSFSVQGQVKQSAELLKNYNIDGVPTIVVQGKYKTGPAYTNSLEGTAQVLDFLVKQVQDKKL
# assay.details: biochemical
measured.property: Kd

State measured Kd of the compound COc1ccc(S(=O)(=O)Nc2ccccc2)cc1 [compound 2, 4-methoxy-N-phenylbenzenesulfonamide] with BpsDsbA (oxidized) (Burkholderia pseudomallei).
> 2000 µM
